Source: the Immune Epitope Database (IEDB)

Kindly supply the reported pKd values for the records listed here.
# Subject Of Test: HLA-A*30:02
# Procedure Summary: IEDB peptide-MHC binding, purified MHC/competitive/radioactivity; filed as Kd, often an IC50 or EC50 that approximates it; bounds were set here for any values at or beyond the usual limits of such assays
# Test Parameters: source organism: SARS coronavirus Tor2
FYI, pKd means -log10 of a concentration in mol per litre.

IN: Sample MWLSYFVASF — what was its pKd?
OUT: 5.62

IN: Sample GLAAEWVLAY — what was its pKd?
OUT: 6.07

IN: Sample STSQKSIVAY — what was its pKd?
OUT: 7.77

IN: Sample FIDTIKSLDY — what was its pKd?
OUT: 5.36
